Test system: C20/A4
Assay: In vitro inhibition of Chondrocyte cell line C20/A4 apoptosis at 25 uM of compound
Format: functional, Homo sapiens
Rule for this label: Condition met means Inhibition is less than 90%; Condition not met means Inhibition is at least 90%.

As a guide, the following entries are already answered.
1. O=C1C(=O)N(Cc2ccccc2)c2ccc(S(=O)(=O)N3CCC[C@H]3COc3ccccc3)cc21 Condition met
2. O=C1Nc2ccc(S(=O)(=O)N3CCC[C@H]3COc3ccccc3)cc2C1=O Condition met
3. O=C1Nc2ccc(S(=O)(=O)N3CCC[C@H]3CNc3ccccc3)cc2C1=O Condition not met
4. CN1C(=O)C(=O)c2cc(S(=O)(=O)N3CCC[C@H]3COc3ccccc3)ccc21 Condition met

Now turn to the next molecule.
Strictly below 90% in Inhibition? `C=CCN1C(=O)C(=O)c2cc(S(=O)(=O)N3CCC[C@H]3COc3ccccc3)ccc21` Condition not met
